# measured_on: IGF2
# condition_info: ASO; also: test concentration or dose not given here
These antisense oligonucleotides have a phosphorothioate backbone; sugars and methylation of C are not fully specified.
quantity_measured: remaining target (mRNA or protein) (fraction of control)
Write no unit; give the number alone.

In the examples that follow, each entry is paired with its recorded remaining target (mRNA or protein) (fraction of control).
TAAATAAGGACCAGCTCCCA :: 0.41
GTGAAGGCAGACCACCGACC :: 0.27

// moving on: another record for remaining target (mRNA or protein) (fraction of control)
## Task What does the data say about its remaining target (mRNA or protein) (fraction of control)? Entry: `CTCTTCTGCCCTGTTTTGTC`
## Result 0.31
